Values were extracted from the supplement of paper PMC9942255.

tested on: Bacillus subtilis DB104 (SP-AmyQ fusion secretion); assay: AmyQ secretion efficiency, weighted average sort bin (1 = best secretion, 10 = worst) (bin number (weighted average, 1-10)); higher = lower secretion efficiency
reported_property: AmyQ secretion efficiency

query: Entry MKRLLSTLLIGIMLLKRKRRRAFAKQD has what AmyQ secretion efficiency?
result: 8.09

query: Try this sequence next: MRSYIKVLTMCFLGLILFVPTYLADNS
result: 7.74

query: Try this sequence next: MRKKTKNRLISSVLSTVVISSLLFKRKAGASSK
result: 7.11

---

tested on: Bacillus subtilis DB104 (SP-AmyQ fusion secretion); assay: AmyQ secretion efficiency, weighted average sort bin (1 = best secretion, 10 = worst) (bin number (weighted average, 1-10)); higher = lower secretion efficiency
If the reported AmyQ secretion efficiency equals or exceeds 5, assign T. If not, assign F.

query: # bool: AmyQ secretion efficiency of MRRSLALCGLALTLAPCAQAAEP >= 5
result: F

query: Try this sequence next: MFNRLFRVCFLAALIMAFTLPNSVYEQKP
result: T

query: Try this sequence next: MKKKLKRKKRRSAIVGTTLVVTPAEAATI
result: T

query: Try this sequence next: MKNMSCKLVVSVTLFFSFLTIGPLQHAQNS
result: T

query: Try this sequence next: MLKKKWMVGLLAGCLAAGGFSYNGSFVAFATEN
result: F

query: Try this sequence next: MRKKRVITCVMAASLTLGSLLPAGYVTAKED
result: F

query: Try this sequence next: MKKCKRKKKKIALILSLSTNAFAKNT
result: T

query: Try this sequence next: MKKRLIAPMLLSAASLAFFAMSGSAQEAAY
result: T

query: Try this sequence next: MKLSVKIAGVLTVAAAAMKATAKGN
result: T
